# Test System: Cannabinoid receptor 2 (Homo sapiens, UniProt P34972)
# Sequence (P34972 whole entry): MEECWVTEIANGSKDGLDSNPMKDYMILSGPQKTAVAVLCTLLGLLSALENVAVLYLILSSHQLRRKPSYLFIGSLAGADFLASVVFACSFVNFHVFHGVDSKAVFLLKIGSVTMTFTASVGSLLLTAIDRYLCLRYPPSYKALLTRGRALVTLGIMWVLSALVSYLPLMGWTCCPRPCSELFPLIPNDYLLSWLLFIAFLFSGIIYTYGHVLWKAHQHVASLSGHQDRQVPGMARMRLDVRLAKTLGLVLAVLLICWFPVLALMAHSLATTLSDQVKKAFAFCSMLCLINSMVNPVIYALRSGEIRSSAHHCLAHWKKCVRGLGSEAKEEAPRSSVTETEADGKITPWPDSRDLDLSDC
# Measurement Protocol: Displacement of [3H]CP-55940 from human CB2 receptor expressed in HEK293 cells
pIC50: −log10 of the molar value.
Mark T for reported pIC50 of 6 or greater; mark F for anything smaller.

INSERT INTO measurements (compound, assigned_category) VALUES
  ('CCCC#Cc1ccc(-c2c(CC)c(C(=O)NN3CCCCCC3)nn2-c2ccc(Cl)cc2Cl)s1', 'T'),
  ('Cc1c(C(=O)NN2CCCCC2)nn(-c2ccc(Cl)cc2Cl)c1-c1ccc(C#CCNC(C)C)s1', 'F'),
  ('Cc1c(C(=O)NN2CC3CCCC3C2)nn(-c2ccc(Cl)cc2Cl)c1-c1ccc(C#CC2CC2)s1 (stereo unspecified)', 'F'),
  ('CCC/C=C/c1ccc(-c2c(C)c(C(=O)NN3CC4CCCC4C3)nn2-c2ccc(Cl)cc2Cl)s1 (stereo unspecified)', 'F'),
  ('CCCC#Cc1ccc(-c2c(C)c(C(=O)NN3CCCCC3)nn2-c2ccc(Cl)cc2Cl)s1', 'F'),
  ('CCC#Cc1ccc(-c2c(C)c(C(=O)NN3CCCCC3)nn2-c2ccc(Cl)cc2Cl)s1', 'F'),
  ('Cc1c(C(=O)NN2CCCCC2)nn(-c2ccc(Cl)cc2Cl)c1-c1ccc(C#CC(C)(C)C)s1', 'F'),
  ('CCCCC#Cc1ccc(-c2c(C)c(C(=O)NCCCC)nn2-c2ccc(Cl)cc2Cl)s1', 'T'),
  ('CCCCC#Cc1ccc(-c2c(C)c(C(=O)NN3CCCCCC3)nn2-c2ccc(Cl)cc2Cl)s1', 'T'),
  ('Cc1c(C(=O)NN2CCCCC2)nn(-c2ccc(Cl)cc2Cl)c1-c1ccc(C#CCOc2ccccc2)s1', 'F'),
  ('CCCCC#Cc1ccc(-c2c(C)c(C(=O)NCCCCCC)nn2-c2ccc(Cl)cc2Cl)s1', 'T'),
  ('CCCCC#Cc1ccc(-c2c(C)c(C(=O)NC3CCCCC3)nn2-c2ccc(Cl)cc2Cl)s1', 'T'),
  ('Cc1c(C(=O)NN2CCCCC2)nn(-c2ccc(Cl)cc2Cl)c1-c1ccc(C#CCCc2ccccc2)s1', 'F'),
  ('Cc1c(C(=O)NN2CCCCC2)nn(-c2ccc(Cl)cc2Cl)c1-c1ccc(C#CC2CCCCC2)s1', 'F'),
  ('Cc1c(C(=O)NN2CCCCC2)nn(-c2ccc(Cl)cc2Cl)c1-c1ccc(C#CCC(C)C)s1', 'T'),
  ('CCC/C=C/c1ccc(-c2c(C)c(C(=O)NN3CCCCC3)nn2-c2ccc(Cl)cc2Cl)s1', 'F'),
  ('Cc1c(C(=O)NN2CCCCC2)nn(-c2ccc(Cl)cc2Cl)c1-c1ccc(C#CC2CCCC2)s1', 'F'),
  ('Cc1c(C(=O)NN2CCCCC2)nn(-c2ccc(Cl)cc2Cl)c1-c1ccc(C#CCOC(C)C)s1', 'F'),
  ('Cc1c(C(=O)NN2CCCCC2)nn(-c2ccc(Cl)cc2Cl)c1-c1ccc(C#CC2CC2)s1', 'F'),
  ('CCCCCc1ccc(-c2c(C)c(C(=O)NN3CCCCC3)nn2-c2ccc(Cl)cc2Cl)s1', 'F'),
  ('Cc1c(C(=O)NN2CC3CCCC3C2)nn(-c2ccc(Cl)cc2Cl)c1-c1ccc(C#CC2CCCCC2)s1 (stereo unspecified)', 'F'),
  ('Cc1c(C(=O)NN2CCCCCC2)nn(-c2ccc(Cl)cc2Cl)c1-c1ccc(Cl)s1', 'F'),
  ('COCC#Cc1ccc(-c2c(C)c(C(=O)NN3CCCCC3)nn2-c2ccc(Cl)cc2Cl)s1', 'F');

* * *

# Test System: Cannabinoid receptor 1 (Homo sapiens)
# Sequence (P21554 whole entry): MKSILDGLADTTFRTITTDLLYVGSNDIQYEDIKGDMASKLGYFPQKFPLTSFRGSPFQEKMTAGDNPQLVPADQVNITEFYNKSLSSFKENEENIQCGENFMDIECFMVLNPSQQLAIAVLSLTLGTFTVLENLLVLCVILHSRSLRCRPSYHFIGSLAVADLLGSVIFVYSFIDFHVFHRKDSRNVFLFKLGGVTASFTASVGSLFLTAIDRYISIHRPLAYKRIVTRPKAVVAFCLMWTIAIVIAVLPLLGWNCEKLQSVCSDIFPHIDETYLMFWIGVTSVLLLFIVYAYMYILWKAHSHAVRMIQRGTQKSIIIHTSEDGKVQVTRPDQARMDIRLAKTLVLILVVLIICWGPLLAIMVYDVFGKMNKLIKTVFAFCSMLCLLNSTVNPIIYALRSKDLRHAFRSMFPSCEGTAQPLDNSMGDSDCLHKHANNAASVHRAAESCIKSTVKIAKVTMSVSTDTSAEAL
# Measurement Protocol: biochemical
# Assay type: cell-based, HEK293
# Description: Displacement of [3H]CP-55940 from human CB1 receptor expressed in HEK293 cells
pIC50: −log10 of the molar value.
Mark rule met for reported pIC50 of 8 or greater; mark rule not met for anything smaller.

INSERT INTO results (compound, assigned_category) VALUES
  ('CCCCCc1ccc(-c2c(C)c(C(=O)NN3CCCCC3)nn2-c2ccc(Cl)cc2Cl)s1', 'rule not met'),
  ('CCCCC#Cc1ccc(-c2c(C)c(C(=O)NN3CCCCC3)nn2-c2ccc(Cl)cc2Cl)s1', 'rule met'),
  ('Cc1c(C(=O)NN2CCCCCC2)nn(-c2ccc(Cl)cc2Cl)c1-c1ccc(Cl)s1', 'rule not met'),
  ('CCCCC#Cc1ccc(-c2c(C)c(C(=O)NC3CCCCC3)nn2-c2ccc(Cl)cc2Cl)s1', 'rule met'),
  ('CCC#Cc1ccc(-c2c(C)c(C(=O)NN3CC4CCCC4C3)nn2-c2ccc(Cl)cc2Cl)s1 (stereo unspecified)', 'rule not met'),
  ('CCCCCc1ccc(-c2c(C)c(C(=O)NN3CC4CCCC4C3)nn2-c2ccc(Cl)cc2Cl)s1 (stereo unspecified)', 'rule not met'),
  ('CCCCC#Cc1ccc(-c2c(C)c(C(=O)NCCCC)nn2-c2ccc(Cl)cc2Cl)s1', 'rule met'),
  ('COCC#Cc1ccc(-c2c(C)c(C(=O)NN3CCCCC3)nn2-c2ccc(Cl)cc2Cl)s1', 'rule not met'),
  ('CCC/C=C/c1ccc(-c2c(C)c(C(=O)NN3CC4CCCC4C3)nn2-c2ccc(Cl)cc2Cl)s1 (stereo unspecified)', 'rule not met'),
  ('Cc1c(C(=O)NN2CCCCCC2)nn(-c2ccc(Cl)cc2Cl)c1-c1ccc(C#CCC(C)C)s1', 'rule met'),
  ('Cc1c(C(=O)NN2CCCCC2)nn(-c2ccc(Cl)cc2Cl)c1-c1ccc(C#CCN(C)C)s1', 'rule not met'),
  ('Cc1c(C(=O)NN2CCCCC2)nn(-c2ccc(Cl)cc2Cl)c1-c1ccc(C#CCOC(C)C)s1', 'rule not met'),
  ('Cc1c(C(=O)NN2CCCCCC2)nn(-c2ccc(Cl)cc2Cl)c1-c1ccc(Br)s1', 'rule not met'),
  ('Cc1c(C(=O)NN2CCCCC2)nn(-c2ccc(Cl)cc2Cl)c1-c1ccc(Cl)s1', 'rule not met'),
  ('CCC/C=C/c1ccc(-c2c(C)c(C(=O)NN3CCCCC3)nn2-c2ccc(Cl)cc2Cl)s1', 'rule not met'),
  ('Cc1c(C(=O)NN2CCCCC2)nn(-c2ccc(Cl)cc2Cl)c1-c1ccc(C#CCNC(C)C)s1', 'rule not met'),
  ('CCc1c(C(=O)NN2CCCCC2)nn(-c2ccc(Cl)cc2Cl)c1-c1ccc(C#CCC(C)C)s1', 'rule met'),
  ('CCC#Cc1ccc(-c2c(C)c(C(=O)NN3CCCCC3)nn2-c2ccc(Cl)cc2Cl)s1', 'rule not met'),
  ('Cc1c(C(=O)NN2CCCCC2)nn(-c2ccc(Cl)cc2Cl)c1-c1ccc(C#CCC(C)C)s1', 'rule met'),
  ('Cc1c(C(=O)NN2CCCCC2)nn(-c2ccc(Cl)cc2Cl)c1-c1ccc(C#CC(C)(C)C)s1', 'rule not met'),
  ('Cc1c(C(=O)NN2CC3CCCC3C2)nn(-c2ccc(Cl)cc2Cl)c1-c1ccc(C#CC2CC2)s1 (stereo unspecified)', 'rule not met'),
  ('CCC#Cc1ccc(-c2c(C)c(C(=O)NN3CCCCCC3)nn2-c2ccc(Cl)cc2Cl)s1', 'rule not met'),
  ('CCCCC#Cc1ccc(-c2c(C)c(C(=O)NN3CC4CCCC4C3)nn2-c2ccc(Cl)cc2Cl)s1 (stereo unspecified)', 'rule met'),
  ('Cc1c(C(=O)NN2CC3CCCC3C2)nn(-c2ccc(Cl)cc2Cl)c1-c1ccc(C#CC(C)(C)C)s1 (stereo unspecified)', 'rule not met'),
  ('CCCCC#Cc1ccc(-c2c(C)c(C(=O)NCCCCCC)nn2-c2ccc(Cl)cc2Cl)s1', 'rule met'),
  ('Cc1c(C(=O)NN2CCCCC2)nn(-c2ccc(Cl)cc2Cl)c1-c1ccc(C#CCOc2ccccc2)s1', 'rule not met'),
  ('CCCCC#Cc1ccc(-c2c(C)c(C(=O)NN3CCCCCC3)nn2-c2ccc(Cl)cc2Cl)s1', 'rule met'),
  ('Cc1c(C(=O)NN2CCCCC2)nn(-c2ccc(Cl)cc2Cl)c1-c1ccc(Br)s1', 'rule not met');

* * *

# Test System: UniProt:P34972
# Measurement Protocol: Displacement of [3H]CP-55940 from human CB2 receptor expressed in HEK293 cells
pIC50: −log10 of the molar value.
Measure: pIC50

INSERT INTO measurements (compound, endpoint_value) VALUES
  ('CCCCCc1ccc(-c2c(C)c(C(=O)NN3CC4CCCC4C3)nn2-c2ccc(Cl)cc2Cl)s1 (centres undefined)', 5.44),
  ('Cc1c(C(=O)NN2CC3CCCC3C2)nn(-c2ccc(Cl)cc2Cl)c1-c1ccc(C#CC2CCCC2)s1 (centres undefined)', 6.04),
  ('CCCCC#Cc1ccc(-c2c(C)c(C(=O)NN3CC4CCCC4C3)nn2-c2ccc(Cl)cc2Cl)s1 (centres undefined)', 6.80),
  ('CCCCC#Cc1ccc(-c2c(C)c(C(=O)NN3CCCCC3)nn2-c2ccc(Cl)cc2Cl)s1', 6.51);
